# systemTested: human CYP4F2 (Homo sapiens (Human))
# Sequence (P78329 5-520): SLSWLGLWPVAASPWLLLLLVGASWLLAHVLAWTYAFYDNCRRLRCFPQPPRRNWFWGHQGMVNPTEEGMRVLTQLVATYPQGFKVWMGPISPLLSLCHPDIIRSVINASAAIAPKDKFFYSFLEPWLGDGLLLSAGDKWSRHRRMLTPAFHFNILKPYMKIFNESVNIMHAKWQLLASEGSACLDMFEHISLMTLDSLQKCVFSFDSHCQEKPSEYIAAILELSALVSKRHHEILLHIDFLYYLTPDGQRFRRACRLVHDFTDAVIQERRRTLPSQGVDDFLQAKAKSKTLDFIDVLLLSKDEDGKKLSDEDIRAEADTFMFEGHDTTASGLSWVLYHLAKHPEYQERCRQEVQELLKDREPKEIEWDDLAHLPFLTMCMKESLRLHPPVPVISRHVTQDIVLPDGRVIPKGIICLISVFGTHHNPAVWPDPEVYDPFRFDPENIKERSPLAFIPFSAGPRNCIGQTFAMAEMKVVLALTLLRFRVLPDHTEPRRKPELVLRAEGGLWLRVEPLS
# protocolNotes: Inhibition test against 20-HETE producing enzyme CYP4F2 (luciferine derivative, luminescence)
# Format: biochemical
# conditionSummary: human CYP4F2, luciferine derivative, luminescence
# Text: (1) Inhibition Test for Each Compound of the Present Invention Against 20-HETE Producing Enzymes (CYP4F2 and CYP4A11) […] A: Luminescence value with addition of compound B: Luminescence value without addition of compound and enzyme
measuredParameter: pIC50
Reminder that pIC50 is minus the log10 of a molar concentration.

Consider O=C(O)CCNC(=O)c1cccc(COc2ccc(-c3ccn[nH]3)nc2)c1 [Example 45-1] . Its measured pIC50 is 5.12

Consider O=C(O)[C@H]1COc2ccc(COc3ccc(-c4ccn[nH]4)nc3)cc2C1 [Example 69-2-2] . Its measured pIC50 is 5.96

Consider O=C(O)[C@H]1CCc2cc(CCOc3ccc(-c4ccn[nH]4)nc3)ccc2O1 [Example 71-8-2] . Its measured pIC50 is 6.25

Consider O=C(O)C1CCN(C(=O)c2cccc(COc3ccc(-c4ccn[nH]4)nc3)c2)C1 (stereo not shown) [Example 45-36] . Its measured pIC50 is 5.96

Consider O=C(O)C1CCc2cc(CCOc3ccc(-c4ccn[nH]4)nc3)ccc2O1 (stereo not shown) [Example 71-7] . Its measured pIC50 is 6.26

Consider O=C(O)CC1CCCN(C(=O)c2cccc(COc3ccc(-c4ccn[nH]4)nc3)c2)C1 (stereo not shown) [Example 45-31] . Its measured pIC50 is 5.60

Consider O=C(O)C1COc2c(CCOc3ccc(-c4ccn[nH]4)nc3)cccc2C1 (stereo not shown) [Example 71-12] . Its measured pIC50 is 5.89

Consider CS(=O)(=O)NC(=O)Cc1cccc(COc2ccc(-c3ccn[nH]3)nc2)c1 [Example 44-3] . Its measured pIC50 is 4.96

Consider O=C(O)C1(OCCCCCCCOc2ccc(-c3ccn[nH]3)nc2)CC1 [Example 71-5] . Its measured pIC50 is 7.41

Consider O=C(CCc1cccc(COc2ccc(-c3ccn[nH]3)nc2)c1)NCC(=O)N1CCCC1 [Example 43-11] . Its measured pIC50 is 7.49

Consider O=C(N[C@H]1C[C@H](C(=O)O)C1)c1cccc(COc2ccc(-c3ccn[nH]3)nc2)c1 [Example 45-22] . Its measured pIC50 is 5.55

Consider COCCNC(=O)CCc1cccc(COc2ccc(-c3ccn[nH]3)nc2)c1 [Example 43-5] . Its measured pIC50 is 7.40

Consider O=C(O)[C@H]1CCCN(S(=O)(=O)c2cccc(COc3ccc(-c4ccn[nH]4)nc3)c2)C1 [Example 69-4-2] . Its measured pIC50 is 6.17

Consider O=C(O)C[C@@H](NC(=O)c1cccc(COc2ccc(-c3ccn[nH]3)nc2)c1)c1ccccc1 [Example 45-8] . Its measured pIC50 is 5.72

Consider O=C(O)C1CC1c1ccc(CCOc2ccc(-c3ccn[nH]3)nc2)c(F)c1 (single isomer, unassigned) [Example 71-18] . Its measured pIC50 is 7.08

Consider O=C(O)C1CC1c1ccc(CCOc2ccc(-c3ccn[nH]3)nc2)c(F)c1 (stereo not shown) [Example 71-16] . Its measured pIC50 is 7.04

Consider O=C(CCc1cccc(COc2ccc(-c3ccn[nH]3)nc2)c1)N1CCCCC1 [Example 42-14] . Its measured pIC50 is 7.52

Consider O=C(O)c1cc2n(n1)CCN(C(=O)c1cccc(COc3ccc(-c4ccn[nH]4)nc3)c1)C2 [Example 45-45] . Its measured pIC50 is 5.80

Consider O=C(O)c1cnn2c1CN(C(=O)c1cccc(COc3ccc(-c4ccn[nH]4)nc3)c1)CC2 [Example 45-44] . Its measured pIC50 is 5.46

Consider O=C(O)[C@H]1CCCN(C(=O)c2cccc(COc3ccc(-c4ccn[nH]4)nc3)c2)C1 [Example 45-29] . Its measured pIC50 is 5.31

Consider CC(C)(COc1cccc(CCOc2ccc(-c3ccn[nH]3)nc2)n1)C(=O)O [Example 71-37] . Its measured pIC50 is 5.46

Consider CC(C)(Oc1ccc(CCOc2ccc(-c3ccn[nH]3)nc2)cc1)C(=O)O [Example 71-30] . Its measured pIC50 is 4.96
